biological target: cloned human 5-HT2A receptor (Homo sapiens, UniProt P28223); construct: purchased Euroscreen; host or cells: CHO-K1; assay: Human 5-HT2A receptor binding assay; conditions: [3H]ketanserin (1 nM) displacement, CHO-K1 cell membranes; read-out: 5-HT2A pKi (converted)
Sequence (P28223 whole entry): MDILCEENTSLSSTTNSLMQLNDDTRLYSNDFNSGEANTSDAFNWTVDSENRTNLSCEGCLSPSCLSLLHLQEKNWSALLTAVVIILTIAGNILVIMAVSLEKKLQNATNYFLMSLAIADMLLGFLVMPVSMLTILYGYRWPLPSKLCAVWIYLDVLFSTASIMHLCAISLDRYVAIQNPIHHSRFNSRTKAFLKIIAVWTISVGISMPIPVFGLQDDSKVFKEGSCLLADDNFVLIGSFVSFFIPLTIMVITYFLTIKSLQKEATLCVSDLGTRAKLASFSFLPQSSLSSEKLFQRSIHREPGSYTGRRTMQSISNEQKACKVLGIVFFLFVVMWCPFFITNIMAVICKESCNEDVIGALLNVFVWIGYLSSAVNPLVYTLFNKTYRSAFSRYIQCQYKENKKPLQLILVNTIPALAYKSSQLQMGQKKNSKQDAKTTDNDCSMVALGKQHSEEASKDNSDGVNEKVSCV
Where a name gives a salt, the structure may show the parent alone.
Value Kind: Ki

Compound	Value Kind	Result
Cc1cc(Nc2cccc(I)c2)nc(N)n1 [Compound 2G, hydrochloride]	Ki	> 3.16 µM
Cc1cc(Nc2ccc(Oc3ccccc3)cc2)nc(N)n1 [Compound 2AE, hydrochloride]	Ki	> 10 µM
CC(=O)c1cccc(-c2cccc(Nc3cc(C)nc(N)n3)c2)c1 [Compound 10C, trifluoroacetic acid]	Ki	> 0.316 µM

Tell me Ki reported for CC(=O)Nc1nc(-c2c(O)ccc3ccccc23)c[nH]1 [Compound 103Q]
> 3.16 µM

Tell me Ki reported for COc1ccccc1-c1ccc(Nc2nc(N)n(C)n2)cc1 [Compound 411B]
> 1 µM

Tell me Ki reported for CC(=O)Nc1nc(-c2cccc3ccccc23)c[nH]1 [Compound 103N]
> 10 µM

Tell me Ki reported for Cc1cc(Nc2cc(Br)ccc2Br)nc(N)n1
> 1 µM

Tell me Ki reported for CC(=O)Nc1ncc(-c2sc3ccccc3c2C)[nH]1 [Compound 103O]
> 10 µM

Tell me Ki reported for Cc1cccc(-c2cc(Nc3cc(C)nc(N)n3)ccc2C)c1
> 1 µM

###

Target: cloned human 5-HT2A receptor (Homo sapiens)
Construct: purchased Euroscreen; host or cells: CHO-K1
Test: Human 5-HT2A receptor binding assay
Details: [3H]ketanserin (1 nM) displacement, CHO-K1 cell membranes; read-out: 5-HT2A pKi (converted)
Description: The binding affinity of ligands for human 5-HT2A and 5-HT2C receptors was determined using the following assay. Membrane preparations from CHO-K1 cells expressing the cloned human 5-HT2A receptor were obtained (Euroscreen). The membranes were thawed rapidly and diluted in assay buffer containing Tris-HCl (50 mM, pH 7.7). […] Non specific binding was determined in the presence of 100 μM mianserin. […] Radioactivity retained on the filters was determined by liquid scintillation counting. […]
Counter-ions that a name gives are not always drawn.
Value Kind: Ki

// solved cases for Ki follow
Molecule	Result
COc1ccc2ccccc2c1-c1c[nH]c(NC(C)=O)n1 [Compound 103C]	> 316 nM
Cc1oc(N)nc1-c1cccc(-c2ccccc2)c1 [Compound 218A, trifluoroacetic acid]	> 1000 nM
Cc1cc(Nc2cccc(F)c2)nc(N)n1	> 10000 nM
Nc1nc(-c2cccc(-c3ccccc3)c2)c[nH]1	> 316 nM
Cc1cc(Nc2ccc(F)c(F)c2)nc(N)n1 [Compound 2M, hydrochloride]	> 1000 nM

Tell me its Ki on cloned human 5-HT2A receptor (Homo sapiens): Cc1cc(Oc2cccc3ccccc23)nc(N)n1
> 10000 nM

Tell me its Ki on cloned human 5-HT2A receptor (Homo sapiens): Cc1cc(Nc2cccc(Br)c2)nc(N)n1
> 3160 nM

Tell me its Ki on cloned human 5-HT2A receptor (Homo sapiens): Nc1nccc(Nc2ccc(I)cc2)n1
> 1000 nM

###

target: human cloned 5-HT2B receptors (Homo sapiens, UniProt P41595); construct: expressed in transfected cells; host or cells: CHO-K1; experiment: Human cloned 5-HT2B receptor binding assay; details: [3H]LSD (1 nM) displacement, membranes of CHO-K1 cells expressing cloned 5-HT2B receptor; read-out: 5-HT2B pKi (converted)
Sequence (P41595 whole entry): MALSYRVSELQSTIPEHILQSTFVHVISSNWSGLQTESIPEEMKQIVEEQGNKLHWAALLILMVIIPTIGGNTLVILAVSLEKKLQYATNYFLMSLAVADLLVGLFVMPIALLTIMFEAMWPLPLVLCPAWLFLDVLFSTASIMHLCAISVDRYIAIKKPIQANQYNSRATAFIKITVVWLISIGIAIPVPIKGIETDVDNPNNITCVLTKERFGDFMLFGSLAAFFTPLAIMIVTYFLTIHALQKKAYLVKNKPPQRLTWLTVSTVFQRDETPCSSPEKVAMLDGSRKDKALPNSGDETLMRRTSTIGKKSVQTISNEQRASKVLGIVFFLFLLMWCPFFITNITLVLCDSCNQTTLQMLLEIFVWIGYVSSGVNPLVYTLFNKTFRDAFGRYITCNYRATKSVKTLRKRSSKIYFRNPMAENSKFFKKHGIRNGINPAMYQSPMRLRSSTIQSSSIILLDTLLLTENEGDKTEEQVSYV
Structures can show the parent of a compound that is named as a salt.
In this section, each of the compounds is paired with its reported Ki.

// solved cases for Ki follow
Compound	Result
Cc1cc(Nc2ccc(N3CCOCC3)cc2)nc(N)n1 [Compound 2K, hydrochloride]	< 1000 nM
Cc1cc(Nc2ccc(F)c(F)c2)nc(N)n1 [Compound 2M, hydrochloride]	< 1000 nM
CC(C)c1cccc(-c2cccc(-c3cnc(N)o3)c2)c1 [Compound 209M, trifluoroacetic acid]	< 1000 nM

Tell me Ki reported for Cc1cc(Oc2cccc(-c3ccccc3)c2)nc(N)n1 [Compound 4C]
< 1000 nM

Tell me Ki reported for COc1c(-c2cnc(N)[nH]2)ccc2ccccc12 [Compound 104E]
< 100 nM

Tell me Ki reported for Cc1cc(Nc2cccc(-c3ccc(N(C)C)cc3)c2)nc(N)n1 [Compound 10H, bis trifluoroacetic acid]
< 100 nM

###

target: cloned human 5-HT2A receptor (Homo sapiens, UniProt P28223); construct: purchased Euroscreen; host or cells: CHO-K1; assay: Human 5-HT2A receptor binding assay; conditions: [3H]ketanserin (1 nM) displacement, CHO-K1 cell membranes; read-out: 5-HT2A pKi (converted)
Counter-ions that a name gives are not always drawn.
In this section, each of the molecules is paired with its reported Ki.

// solved cases for Ki follow
Molecule	Ki
Cc1cc(Nc2ccc(-c3ccccc3)cc2)nc(N)n1 [Compound 11A, trifluoroacetic acid]	> 1000 nM
Cc1cc(Nc2cccc(O)c2)nc(N)n1 [Compound 2Q, hydrochloride]	> 1000 nM
Nc1ncc(-c2cccc(-c3ccccc3Cl)c2)o1 [Compound 209E]	> 1000 nM

Next molecule, please.
Tell me Ki reported for Cc1cccc(-c2ccc(Nc3cc(C)nc(N)n3)cc2)c1 [Compound 11B]
> 1000 nM

###

target: cloned human 5-HT2A receptor (Homo sapiens, UniProt P28223); construct: purchased Euroscreen; host or cells: CHO-K1; experiment: Human 5-HT2A receptor binding assay; conditions: [3H]ketanserin (1 nM) displacement, CHO-K1 cell membranes; read-out: 5-HT2A pKi (converted)
Counter-ions that a name gives are not always drawn.
In this section, each of the molecules is paired with its reported Ki.

Molecule	Tested On	Ki
COc1ccc(Nc2cc(C)nc(N)n2)cc1Cl [Compound 2AC, hydrochloride]	cloned human 5-HT2A receptor (Homo sapiens, UniProt P28223)	> 1000 nM
Cc1cc(Nc2cccc3c2CCC3)nc(N)n1 [Compound 2R, hydrochloride]	cloned human 5-HT2A receptor (Homo sapiens, UniProt P28223)	> 1000 nM
Nc1nc(-c2cccc3ccc(Br)cc23)c[nH]1 [Compound 104G]	cloned human 5-HT2A receptor (Homo sapiens, UniProt P28223)	> 316 nM
Cc1cc(Nc2cccc(Oc3ccccc3)c2)nc(N)n1 [Compound 2AD, hydrochloride]	cloned human 5-HT2A receptor (Homo sapiens, UniProt P28223)	> 316 nM
Cc1cccc(-c2cccc(Nc3cc(C)nc(N)n3)c2)c1 [Compound 10E, trifluoroacetic acid]	cloned human 5-HT2A receptor (Homo sapiens, UniProt P28223)	> 100 nM

Tell me its Ki on cloned human 5-HT2A receptor (Homo sapiens, UniProt P28223): Cc1cccc(-c2cccc(Nc3nc(N)nn3C)c2)c1 [Compound 406C]
> 1000 nM

Tell me its Ki on cloned human 5-HT2A receptor (Homo sapiens, UniProt P28223): Cc1cc(Nc2cccc(Br)c2C)nc(N)n1 [Compound 2T, hydrochloride]
> 1000 nM

Tell me its Ki on cloned human 5-HT2A receptor (Homo sapiens, UniProt P28223): COc1ccc2ccccc2c1-c1nc(N)[nH]c1C [Compound 104J]
> 316 nM

Tell me its Ki on cloned human 5-HT2A receptor (Homo sapiens, UniProt P28223): Nc1ncc(-c2cccc(-c3cccc(O)c3)c2)o1 [Compound 209C, 3′-(2-Amino-oxazol-5-yl)-biphenyl-3-ol]
> 10000 nM

Tell me its Ki on cloned human 5-HT2A receptor (Homo sapiens, UniProt P28223): COc1ccc(-c2c[nH]c(NC(C)=O)n2)c2ccccc12 [Compound 103B]
> 10000 nM

Tell me its Ki on cloned human 5-HT2A receptor (Homo sapiens, UniProt P28223): CCOc1ccc2ccccc2c1-c1c[nH]c(NC(C)=O)n1 [Compound 103A]
> 3160 nM

Tell me its Ki on cloned human 5-HT2A receptor (Homo sapiens, UniProt P28223): Cc1cc(Nc2ccc(I)cc2)nc(N)n1 [Compound 2E, hydrochloride]
> 10000 nM
